System: 786-0 renal
experiment-description: NCI-60 one-dose screen, 48 h (100 = growth as untreated, 0 = no growth, -100 = all killed)
condition-description: 10 µM unless noted
This is part of a sample that, as a whole, favours compounds with a hit. Of some 83,000 tested, about 20% had one in any assay. The source made the active and inactive calls. How the source made its calls: active means growth percent below 10; inactive means the rest.
The entries below come with measured growth values attached.

Would you please look over these solved cases?
compound="COc1ccc(C2CC(c3ccc(OC)cc3OC)=NN2c2ccc(S(N)(=O)=O)cc2)cc1 (configuration not stated)" tgt="786-0 renal" assay_result="99.3% (inactive)"
compound=O=C(Nc1ccc2c(c1)OCCO2)C(=O)c1c[nH]c2ccccc12 tgt="786-0 renal" assay_result="59.7% (inactive)"
compound="CCCCCCCCCCCCNC(=O)[C@H]1CSC(c2ccsc2)N1 (some centres not stated)" tgt="786-0 renal" assay_result="-94.8% (active)"
compound=O=c1ccn(-c2ncnc3nc[nH]c23)cc1 tgt="786-0 renal" assay_result="97.1% (inactive)"
compound=Nc1cc2c([nH]c[n+]2CC#CCCl)c(SCC#CCCl)n1 tgt="786-0 renal" assay_result="-86.5% (active)"
compound=O=C(O)/C=C/C(=O)c1ccc(Cl)cc1 tgt="786-0 renal" assay_result="105% (inactive)"
compound=COc1ccc2c(c1)[nH]c(=O)c1c3cccc(F)c3cn21 tgt="786-0 renal" assay_result="44.3% (inactive)"
compound=CC(C)c1ccc2occ(C=C3C(=O)NC(=O)NC3=O)c(=O)c2c1 tgt="786-0 renal" assay_result="91.6% (inactive)"

Problem: Tell me the measured growth of `CC(=O)Nc1ccc(S(=O)(=O)n2ccc(-c3ccc4c(c3)CCC(C)(C)O4)n2)cc1` , please.
Solution: 79.8% (inactive)

Problem: Tell me the measured growth of `O=C1/C(=C/c2ccc(Cl)cc2)CN(C(=O)CCN2CCC(=NO)CC2)C/C1=C\c1ccc(Cl)cc1` , please.
Solution: -76.9% (active)

Problem: Tell me the measured growth of O=S1(=O)CCC(N(/N=C/c2ccco2)c2ccccc2)C1 (configuration not stated) , please.
Solution: 103% (inactive)

Problem: Tell me the measured growth of `O=S(=O)(NCCCNc1nccc(-n2ccc3cccnc32)n1)c1cccc(C(F)(F)F)c1` , please.
Solution: 102% (inactive)

Problem: Tell me the measured growth of O=C1Nc2ccc(Cl)cc2C12Nc1cc(Cl)ccc1S2 (configuration not stated) , please.
Solution: 89.4% (inactive)

Problem: Tell me the measured growth of O=c1ccn(C2CC(O)C(O)C(CO)O2)c(=O)[nH]1 (configuration not stated) , please.
Solution: 109% (inactive)

Problem: Tell me the measured growth of `COc1ccc(-c2cc(-c3ccccc3)nc(SCCCC(=O)NO)n2)cc1OC` , please.
Solution: 0.761% (active)

Problem: Tell me the measured growth of `O=c1[nH]c(Nc2ccc(S(=O)(=O)O)cc2)nc2nc(Nc3ccc(NC(=S)Nc4ccccc4)cc3)nc(-c3ccc(O)cc3O)c12` , please.
Solution: 104% (inactive)

Problem: Tell me the measured growth of `CCN(CC)c1ccc(N=O)cc1` , please.
Solution: 91.8% (inactive)

* * *

Tested on: HOP-62 NSCLC
experiment-description: NCI-60 one-dose screen, 48 h
condition-description: 10 µM unless noted
Compounds without any hit were thinned out: in the full panel of roughly 83,000, 20% have a hit. Calls of active or inactive are those of the source. Rule for the calls: active = growth percent below 10; inactive = the rest.
Classes to choose from: yes for active, no for inactive

Here's what some known entries look like.
compound="Cc1csc(NC(c2ccccc2)c2c(C)nc3ccccn23)n1 (stereo not given)" tgt="HOP-62 NSCLC" assigned_class=no
compound=Nc1cc2c(cc1C(=O)c1cccc(F)c1)OCCO2 tgt="HOP-62 NSCLC" assigned_class=no
compound=C1=Cc2ccccc2N(c2nnc(-c3ccccc3)o2)c2ccccc21 tgt="HOP-62 NSCLC" assigned_class=no
compound="O=C(c1ccccc1)C1OC1c1ccc([N+](=O)[O-])cc1 (stereo not given)" tgt="HOP-62 NSCLC" assigned_class=no
compound=C[n+]1c(/C=C/c2c(O)ccc3ccccc23)ccc2ccccc21 tgt="HOP-62 NSCLC" assigned_class=no

Problem: Fill in: this test's call for `O=C(O)Cc1cccc(=O)c(O)c1C(=O)O` is ___
Solution: no

Problem: Fill in: this test's call for `S=C1CC(=S)NC(=S)N1` is ___
Solution: no

Problem: Fill in: this test's call for `COc1ccc(NC(=O)c2c(Nc3ccc(OC)cc3OC)n[nH]c2N)c(OC)c1` is ___
Solution: no

Problem: Fill in: this test's call for `COc1ccc(-n2c(=S)sc3c(Cl)nc(C)nc32)c(OC)c1` is ___
Solution: no

Problem: Fill in: this test's call for `CCN(CC)CCOC(=O)C(c1ccccc1)(c1ccccc1)C(C)C` is ___
Solution: no

* * *

System: SK-OV-3 ovarian
experiment-description: NCI-60 one-dose screen, 48 h (100 = growth as untreated, 0 = no growth, -100 = all killed)
condition-description: 10 µM unless noted
The panel holds about 83,000 compounds, 20% with a hit somewhere; the sample as a whole holds those more often.
measure-name: growth (%)
Please reply with the bare figure in % and do not write the unit itself.

compound=CC(C)(C)n1cc(-c2ccnc(NCCCNS(=O)(=O)c3ccc(F)cc3)c2)c(-c2cccc(O)c2)n1 tgt="SK-OV-3 ovarian" measure_name=growth assay_result=83.8

Problem: Tell me the measured growth of `O=C1CCCCC1(c1ccccc1)c1ccccc1` , please.
Solution: 101

Problem: Tell me the measured growth of `COc1cc(-c2nn(-c3cccc(NC(=O)Nc4cc(C(F)(F)F)cc(C(F)(F)F)c4)c3)cc2-c2ccncc2)ccc1Cl` , please.
Solution: -9.79

Problem: Tell me the measured growth of `O=[N+]([O-])c1cnc(Sc2ccncn2)s1` , please.
Solution: 114

Problem: Tell me the measured growth of `O=C(Nc1cccc(-n2cc(-c3ccncc3)c(-c3ccc(Cl)c(O)c3)n2)c1)Nc1ccc(Cl)c(C(F)(F)F)c1` , please.
Solution: 7.47

Problem: Tell me the measured growth of `O=C(CSc1nc2ccccc2[nH]1)c1ccc(N2CCOCC2)cc1` , please.
Solution: 101

Problem: Tell me the measured growth of `Fc1ccc(CNCCNc2ncnc3c2cnn3-c2ccccc2)cc1` , please.
Solution: 94.6

Problem: Tell me the measured growth of `O=C(Nc1ccc(NCCN2CCOCC2)nc1)c1ccc([N+](=O)[O-])cc1` , please.
Solution: 107

Problem: Tell me the measured growth of `COc1cccc(CC(C)=C(c2ccc(OCCN(C)C)cc2)c2ccc(OCCN(C)C)cc2)c1` , please.
Solution: 70.2

Problem: Tell me the measured growth of CC(C)CC1NC(C)(C)CO1 (centres undefined) , please.
Solution: 110

Problem: Tell me the measured growth of `COC(=O)c1cc(=O)nc(N/N=C/c2ccco2)s1` , please.
Solution: 117

Problem: Tell me the measured growth of `CCOC(=O)/C(C#N)=C1/C(=O)Nc2ccccc21` , please.
Solution: 117

* * *

Test system: EKVX NSCLC
experiment-description: NCI-60 one-dose screen, 48 h
condition-description: 10 µM unless noted
This is part of a sample that, as a whole, favours compounds with a hit. Of some 83,000 tested, about 20% had one in any assay. Calls of active or inactive are those of the source. How the source made its calls: active means growth percent below 10; inactive means the rest.
Classes to choose from: YES (active), NO (inactive)

molecule="O=c1ccn(C2CC(O)C(O)C(CO)O2)c(=O)[nH]1 (centres undefined)" tgt="EKVX NSCLC" assigned_class=NO
molecule=COc1ccc(C(=O)NC(=O)Nc2cc3c(cc2F)/C(=C/c2[nH]c(C)c(CCC(=O)O)c2C)C(=O)N3)c(F)c1 tgt="EKVX NSCLC" assigned_class=NO
molecule="C=C1CCC2C3(C)COC(c4c(OC)cccc4OC)OC3CCC2(C)C1C/C=C1/C(=O)OCC1O (centres undefined)" tgt="EKVX NSCLC" assigned_class=NO
molecule=CCCCCCCCCCCC(=O)NCCC[N+](C)(C)CC(=O)[O-] tgt="EKVX NSCLC" assigned_class=NO
molecule="O=c1[nH]c2ccc(Br)cc2c2c1C(c1ccc(Cl)cc1)c1c(ncn3nc(-c4ccco4)nc13)O2 (centres undefined)" tgt="EKVX NSCLC" assigned_class=NO

Problem: Fill in: this test's call for COc1ccc(C2CC(c3ccc(OC)cc3OC)=NN2c2ccc(S(N)(=O)=O)cc2)cc1 (centres undefined) is ___
Solution: NO

Problem: Fill in: this test's call for `Cc1ccc(-c2nc(C#N)c(S(=O)(=O)n3nc(-c4ccccc4)cc3N)o2)cc1` is ___
Solution: NO

Problem: Fill in: this test's call for `S=c1[nH]nc(-c2cc3ccc2CCc2ccc(cc2)CC3)n1C1CC1` is ___
Solution: NO

Problem: Fill in: this test's call for `O=C(O)c1cn(C2CC2)c2cc(N3CCN(C(=O)/C=C/c4ccc(Cl)cc4)CC3)c(F)cc2c1=O` is ___
Solution: NO

Problem: Fill in: this test's call for `CC1(c2ccc(Cl)cc2)OC(=O)CC(=O)O1` is ___
Solution: NO
